Observed pIC50 values for Dipeptidyl Peptidase-IV (DPP-IV) (Homo sapiens) are listed in what follows.
Units for pIC50: none; it is -log10 of a concentration expressed in mol/L.

Task item: Which pIC50 value belongs to `C[C@H]1CCC(=O)N(C[C@@H](N)CC(=O)N2CCc3c(nc(C(F)(F)F)nc3C(F)(F)F)C2)C1` ?
Reply: 5.05

Task item: Which pIC50 value belongs to `C[C@H]1CN(C[C@@H](N)CC(=O)N2CCc3c(ncnc3C(F)(F)F)C2)C(=O)CO1` ?
Reply: 7.32

Task item: Which pIC50 value belongs to `CCCc1nc2c(c(C(F)(F)F)n1)CCN(C(=O)C[C@H](N)CN1CC(F)(F)CCC1=O)C2` ?
Reply: 7.74

Task item: Which pIC50 value belongs to `CC1=CC(=O)N(C[C@@H](N)CC(=O)N2CCn3c(nnc3C(F)(F)F)C2)C1` ?
Reply: 6.70

Task item: Which pIC50 value belongs to `C[C@H]1CN(C[C@@H](N)CC(=O)N2CCc3sc(C4CCOCC4)nc3C2)C(=O)CO1` ?
Reply: 6.45

Task item: Which pIC50 value belongs to `C[C@H]1CN(C[C@@H](N)CC(=O)N2CCc3c(nc(-c4cccc(F)c4)nc3C(F)(F)F)C2)C(=O)CO1` ?
Reply: 6.77

Task item: Which pIC50 value belongs to CC1CC(=O)N(C[C@@H](N)CC(=O)N2CCc3c(nc(C(F)(F)F)nc3C(F)(F)F)C2)C1 (stereo partly drawn) ?
Reply: 7.23

Task item: Which pIC50 value belongs to `Cc1nc2c(c(C(F)(F)F)n1)CCN(C(=O)C[C@H](N)CN1CC(F)(F)CCC1=O)C2` ?
Reply: 7.80

Task item: Which pIC50 value belongs to `C[C@H]1CN(C[C@@H](N)CC(=O)N2CCc3c(nc(-c4ccc(F)c(F)c4)nc3C(F)(F)F)C2)C(=O)CO1` ?
Reply: 7.48

Task item: Which pIC50 value belongs to `C[C@H]1CN(C[C@@H](N)CC(=O)N2CCc3sc(-c4ccc(F)cc4)nc3C2)C(=O)CO1` ?
Reply: 7.66

Task item: Which pIC50 value belongs to `C[C@@H]1CCC(=O)N(C[C@@H](N)CC(=O)N2CCc3c(nc(CF)nc3C(F)(F)F)C2)C1` ?
Reply: 7.68

Task item: Which pIC50 value belongs to `N[C@@H](CC(=O)N1CCc2sc(-c3ccc(C(F)(F)F)cc3)nc2C1)CN1CC(F)(F)CCC1=O` ?
Reply: 8.05

Task item: Which pIC50 value belongs to `C[C@H]1CN(C[C@@H](N)CC(=O)N2CCc3c(cccc3C(F)(F)F)C2)C(=O)CO1` ?
Reply: 6.76

Task item: Which pIC50 value belongs to `C[C@H]1CN(C[C@@H](N)CC(=O)N2CCn3c(nnc3C(F)(F)F)C2)C(=O)CO1` ?
Reply: 6.79

Task item: Which pIC50 value belongs to `CC(C)c1nc2c(c(C(F)(F)F)n1)CCN(C(=O)C[C@H](N)CN1C[C@H](C)CCC1=O)C2` ?
Reply: 7.80

Task item: Which pIC50 value belongs to `N[C@@H](CC(=O)N1CCc2sc(C(F)(F)F)nc2C1)CN1CC(F)(F)CCC1=O` ?
Reply: 6.94

Task item: Which pIC50 value belongs to `N[C@@H](CC(=O)N1CCc2c(nc(-c3ccsc3)nc2C(F)(F)F)C1)CN1CC(F)(F)CCC1=O` ?
Reply: 7.26

Task item: Which pIC50 value belongs to `N[C@@H](CC(=O)N1CCc2c(nc(-c3ccco3)nc2C(F)(F)F)C1)CN1CC(F)(F)CCC1=O` ?
Reply: 7.92

Task item: Which pIC50 value belongs to `C[C@H]1CN(C[C@@H](N)CC(=O)N2CCn3c(nnc3C(F)(F)C(F)(F)F)C2)C(=O)CO1` ?
Reply: 6.45

Task item: Which pIC50 value belongs to `N[C@@H](CC(=O)N1CCc2c(nc(C3CCCC3)nc2C(F)(F)F)C1)CN1CC(F)(F)CCC1=O` ?
Reply: 7.52

Values compiled from patent US7879848B2.
